Test: In-house metabolic stability study (rat liver microsome)
Format: in vitro ADME
Details: liver microsomes, read-out: in vitro intrinsic clearance
value_kind: CLint scaled (mL/min/kg)
One number for each entry, in mL/min/kg.

q: Which CLint scaled value belongs to Cc1cc(Cn2nnc3c(-c4ccco4)nc(N)nc32)ccc1N [vipadenant, Vipadenant] ?
a: 20

----------
Assay: Rat pharmacokinetic study after IV or PO administration
Assay type: in vivo
Conditions: male, Sprague-Dawley, plasma; rat, IV 1 mg/kg
value_kind: clearance (mL/min/kg)
One number for each entry, in mL/min/kg.

q: Which clearance value belongs to Cc1cc(Cn2nnc3c(-c4ccco4)nc(N)nc32)ccc1N [vipadenant, Vipadenant] ?
a: 37.8
